settings: buffer; pH 7.4; 200.0 µM
Entries annotated with measured solubility kinetic
Please reply with the bare figure in mg/mL and do not write the unit itself.

As a guide, the following entries are already answered.
{"MOLECULE": "NC(=O)CSc1nc(-c2ccccc2)nc2ccccc12", "PARAMETER MEASURED": "solubility kinetic", "ENDPOINT UNIT": "mg/mL", "RESULT NUMBER": 0.0007}
{"MOLECULE": "COC(=O)c1ccc(CN2CCCCC2)cc1", "PARAMETER MEASURED": "solubility kinetic", "ENDPOINT UNIT": "mg/mL", "RESULT NUMBER": 0.0289}
{"MOLECULE": "CC(=O)CCc1oc2c([N+](=O)[O-])cccc2c1-c1ccc(C)o1", "PARAMETER MEASURED": "solubility kinetic", "ENDPOINT UNIT": "mg/mL", "RESULT NUMBER": 0.0028}

The record that follows has no solubility kinetic shown yet.
Q: Look up solubility kinetic: Cc1cccc(NC(=O)[C@@H]2CCCN2S(=O)(=O)c2ccc(Cl)cc2)c1
A: 0.0379

* * *

conditions: buffer; pH 7.4; 200.0 µM
PARAMETER MEASURED: log10 solubility kinetic (log10 of the value in µg/mL)
The base-10 logarithm of solubility kinetic, taken with solubility kinetic in µg/mL, is what appears here.

Previously resolved entries follow.
{"COMPOUND": "CC(C)CCNCC(O)CON=C1c2ccccc2-c2ccccc21 (stereo not drawn)", "log10 solubility kinetic": 1.68}
{"COMPOUND": "CCc1ccccc1NC(=O)c1cc(-c2ccco2)on1", "log10 solubility kinetic": 0.49}
{"COMPOUND": "COc1ccc2[nH]cc(CCNC(=O)C3CCCCC3)c2c1", "log10 solubility kinetic": 1.63}
{"COMPOUND": "COc1ccc(CCNc2ccc(S(N)(=O)=O)cn2)cc1", "log10 solubility kinetic": 1.63}
{"COMPOUND": "O=C(NC(=S)Nc1ccccc1N1CCCC1)c1cccs1", "log10 solubility kinetic": 0.51}

Q: Requested read-out: log10 solubility kinetic. Entry: O=C(NCCNC(=O)c1ccccc1O)c1ccccc1O
A: 1.51

Q: For COc1cccc(NC(=O)COC(=O)CCSc2ccccc2)c1 then?
A: 1.60

Q: What about CN1CCN(C(=O)CCC(=O)O)CC1 ?
A: 1.42

* * *

details: buffer; pH 7.4; 200.0 µM
Catalogue of solubility kinetic readings, one per entry.

{"SMILES REPRESENTATION": "COc1ccccc1NC(=O)CC(=O)Nc1ccccc1OC", "solubility kinetic": "> 47.2 µg/mL"}
{"SMILES REPRESENTATION": "COc1ccc(NC(=O)CN2C(=O)CSC2=O)cc1", "solubility kinetic": "> 42 µg/mL"}
{"SMILES REPRESENTATION": "COc1ccccc1C(=O)NC(=O)COC(=O)c1nccnc1N", "solubility kinetic": "> 49.5 µg/mL"}

Q: Reported solubility kinetic, molecule COc1ccccc1NC(=O)COC(=O)c1ccc2ccccc2n1 : ____
A: 13.1 µg/mL

Q: What do you have for O=S(=O)(NC1CCN(Cc2ccccc2)CC1)c1ccc(Cl)cc1 ?
A: > 54.7 µg/mL

Q: // repeat for O=C(NCc1ccccc1)c1ccc[n+]([O-])c1 and report
A: > 34.2 µg/mL

* * *

details: buffer; pH 7.4; 200.0 µM
Values of solubility kinetic greater than or equal to 30 µg/mL map to Fulfilled; values below map to Not fulfilled.

{"COMPOUND": "COc1ccc(NC(=O)COC(=O)CCNC(=O)c2ccco2)cc1Cl", "CLASS ASSIGNMENT": "Fulfilled"}
{"COMPOUND": "O=C(Nc1nc2ccccc2[nH]1)c1cccc(Br)c1", "CLASS ASSIGNMENT": "Not fulfilled"}
{"COMPOUND": "CC(C)n1c(CN(C)c2ccccc2)nc2ccccc21.Cl", "CLASS ASSIGNMENT": "Fulfilled"}

Below: the item to evaluate.
Q: Check the entry COC(=O)c1ccc2nc(NC(=O)C3CC3)sc2c1 : does solubility kinetic equal or exceed 30 µg/mL?
A: Not fulfilled

* * *

conditions: buffer; pH 7.4; 200.0 µM
Label rule, in plain words: solubility kinetic of 8 µg/mL and up is Satisfied, under 8 µg/mL is Not satisfied.

Take a look at these entries with their results.
{"COMPOUND": "COC(=O)c1sccc1NC(=O)c1ccc(OC)c([N+](=O)[O-])c1", "CLASS ASSIGNMENT": "Not satisfied"}
{"COMPOUND": "O=C(Cc1ccc(Cl)cc1)NCC(=O)N1CCCCCC1", "CLASS ASSIGNMENT": "Satisfied"}

Q: Is it the case that COc1cccc2cc(C(=O)NCc3ccc(F)cc3)c(=N)oc12 has solubility kinetic reaching or exceeding 8 µg/mL?
A: Not satisfied

Q: Now consider CC1(C)S[C@@H]2[C@H](NC(=O)C(C(=O)[O-])c3ccccc3)C(=O)N2[C@H]1C(=O)[O-].[Na+] (some centres undefined) and answer again.
A: Satisfied

Q: And what about the compound Cc1ccc([N+](=O)[O-])cc1N(CC(=O)NC1CCCC1)S(C)(=O)=O ?
A: Satisfied

Q: Repeat for the following compound: CCS(=O)(=O)Nc1cccc(-c2cn3c(n2)SCC3)c1
A: Satisfied

Q: Now this one: Cn1c(=O)oc2cc(NC(=O)CCl)ccc21
A: Satisfied

Q: Can you check Cc1[nH]c2ccccc2c1CCNC(=O)CCC(=O)c1ccccc1 next?
A: Satisfied

Q: Same lookup for Cn1c(OCc2cccnc2)nc2c1c(=O)n(Cc1ccc(F)cc1)c(=O)n2C , please.
A: Not satisfied

* * *

settings: buffer; pH 7.4; 200.0 µM
PARAMETER MEASURED: solubility kinetic

Reference set, count: 3
{"MOLECULE": "O=C(COC(=O)c1cc(=O)[nH]c2ccccc12)Nc1ccc(F)cc1F", "solubility kinetic": "13.7 µg/mL"}
{"MOLECULE": "Cc1cccc(NC(=O)C2C3CCCCC32)c1 (centres undefined)", "solubility kinetic": "3 µg/mL"}
{"MOLECULE": "CCC(=O)c1ccc(Oc2nc3c(c(=O)n(C)c(=O)n3C)n2CC)cc1", "solubility kinetic": "19.6 µg/mL"}

Q: I have this molecule here, CC(=O)Nc1ccc(NC(=O)[C@H](C)NC(=O)c2ccco2)cc1 , and I need its recorded solubility kinetic.
A: > 47.3 µg/mL

Q: Record: COc1ccc(OCCNC(=O)Nc2cc(F)c(F)cc2Cl)cc1
A: < 0.4 µg/mL

Q: Same for CCc1ccc(S(=O)(=O)NC2CC(C)(C)NC(C)(C)C2)cc1
A: 35.8 µg/mL

Q: Continue with COc1ccc(NC(=O)CN2C(=O)C(C)Oc3ccc(C)cc32)cc1 (centres undefined)
A: 9.6 µg/mL

Q: Also O=C(COC(=O)c1cccs1)Nc1ccccc1[N+](=O)[O-] , if possible.
A: 2 µg/mL

Q: Same question, O=C(COC(=O)C1=COCCO1)Nc1cc(Cl)c(Cl)cc1Cl this time
A: 5.3 µg/mL

Q: COc1ccccc1N(CC1CO1)S(=O)(=O)c1ccc(C)cc1 (centres undefined) ?
A: 47.5 µg/mL

Q: Try CCN(c1ccccc1)S(=O)(=O)c1ccc(Cl)c(NC(=O)CNCc2ccccc2OC)c1 next.
A: 3.7 µg/mL

* * *

conditions: buffer; pH 7.4; 200.0 µM
PARAMETER MEASURED: solubility kinetic

Record excerpt, results attached:
{"COMPOUND": "CN(C)/C(=N\\S(=O)(=O)c1ccc(F)cc1)c1ccccc1", "RESULT": "> 46 µg/mL"}
{"COMPOUND": "NC1=NC(=Nc2ccc(S(N)(=O)=O)cc2)c2ccccc21", "RESULT": "> 45.1 µg/mL"}

Q: Endpoint output: solubility kinetic of CCOCCCN1CC(C(=O)NCc2ccc3c(c2)OCO3)CC1=O (stereo unspecified) . Value?
A: > 52.3 µg/mL

Q: Then what about the compound Cc1ccc(Nc2nc(-c3ccccc3)c(CC(=O)O)s2)cc1 ?
A: > 48.7 µg/mL

Q: Repeat for the following compound: O=C(Nc1ccccn1)c1ccc2c(=O)n3c(nc2c1)CCCCC3
A: > 50.2 µg/mL

Q: How about this compound: C=C1C(C(=O)Nc2ccccc2)C1C(=O)Nc1ccccc1 (stereo unspecified)
A: < 0.3 µg/mL

* * *

settings: buffer; pH 7.4; 200.0 µM
Catalogue of solubility kinetic readings, one per entry.
Report the figure in µg/mL without appending any unit label.

Sample answers from the record:
{"COMPOUND": "COc1ccc(CC(=O)N2CCN(c3ccccc3)CC2)cc1OC", "solubility kinetic (µg/mL)": 49.9}
{"COMPOUND": "Cc1ccc(S(=O)(=O)NC(=O)Nc2ccccc2)cc1", "solubility kinetic (µg/mL)": 41.8}
{"COMPOUND": "CCC(C)c1ccc(NC(=O)Nc2cccnc2)cc1 (stereo unspecified)", "solubility kinetic (µg/mL)": 33.2}
{"COMPOUND": "COc1cc(/C=C/C(=O)N2CCc3ccccc3C2)cc(OC)c1OC", "solubility kinetic (µg/mL)": 46.6}

Let us move to another entry and its solubility kinetic.
Q: Entry Cc1ccc(NC(=O)CN2CCCC2c2cccn2C)c(Br)c1 (stereo unspecified) has what solubility kinetic?
A: 11.4
